test system: multiple drug resistant acute promyelocytic leukemia cells (HL-60/RV); assay: In vitro cytotoxicity, CellTiter-Glo 96 h, HL60/RV; settings: Homo sapiens, HL-60, read-out: Cytotoxic potency (IC50 class), HL60/RV
IC50: recorded values
Readout kind: IC50

{"Smiles string": "CC[C@@]1(O)C(=O)OCc2c1cc1n(c2=O)Cc2c-1nc1cc3c(cc1c2-c1ccc(F)cc1)OCO3", "Recorded value": "0.1 to 1 nM"}
{"Smiles string": "CC[C@@]1(O)C(=O)OCc2c1cc1n(c2=O)Cc2c-1nc1cc3c(cc1c2CNc1ccccc1)OCO3", "Recorded value": "1 to 10 nM"}
{"Smiles string": "CC[C@@]1(O)C(=O)OCc2c1cc1n(c2=O)Cc2c-1nc1cc3c(cc1c2C(C)(C)C)OCO3", "Recorded value": "1 to 10 nM"}
{"Smiles string": "CC[C@@]1(O)C(=O)OCc2c1cc1n(c2=O)Cc2c-1nc1cc3c(cc1c2CN1CCN(C)CC1)OCO3", "Recorded value": "10 to 100 nM"}
{"Smiles string": "CCCCNCc1c2c(nc3cc4c(cc13)OCO4)-c1cc3c(c(=O)n1C2)COC(=O)[C@]3(O)CC", "Recorded value": "1 to 10 nM"}
{"Smiles string": "CC[C@@]1(O)C(=O)OCc2c1cc1n(c2=O)Cc2c-1nc1cc3c(cc1c2CNCCCCO)OCO3", "Recorded value": "100 to 1000 nM"}
{"Smiles string": "CC[C@@]1(O)C(=O)OCc2c1cc1n(c2=O)Cc2c-1nc1cc3c(cc1c2CN(CCO)CCO)OCO3", "Recorded value": "100 to 1000 nM"}
{"Smiles string": "CCc1c2c(nc3ccc(O)cc13)-c1cc3c(c(=O)n1C2)COC(=O)[C@]3(O)CC", "Recorded value": "10 to 100 nM"}
{"Smiles string": "CCC(CC)Cc1c2c(nc3cc4c(cc13)OCO4)-c1cc3c(c(=O)n1C2)COC(=O)[C@]3(O)CC", "Recorded value": "1 to 10 nM"}
{"Smiles string": "CC[C@@]1(O)C(=O)OCc2c1cc1n(c2=O)Cc2c-1nc1cc3c(cc1c2CN(CCN)CCO)OCO3", "Recorded value": "100 to 1000 nM"}
{"Smiles string": "CC[C@@]1(O)C(=O)OCc2c1cc1n(c2=O)Cc2c-1nc1cc3c(cc1c2C1CC1)OCO3", "Recorded value": "1 to 10 nM"}
{"Smiles string": "CCc1c2c(nc3cc4c(cc13)OCO4)-c1cc3c(c(=O)n1C2)COC(=O)[C@]3(O)CC", "Recorded value": "1 to 10 nM"}

---

system: pancreatic cancer cells (BxPC3); test: In vitro cytotoxicity, CellTiter-Glo 96 h, BxPC3; details: Homo sapiens, BXPC-3, read-out: Cytotoxic potency (IC50 class), BxPC3
pIC50: −log10 of the molar value.

{"Compound": "CC[C@@]1(O)C(=O)OCc2c1cc1n(c2=O)Cc2c-1nc1cc3c(cc1c2CN(C)C1CCCC[C@H]1NC)OCO3 (stereo partly shown)", "Tested target": "pancreatic cancer cells (BxPC3)", "pIC50": "6.00 to 7.00"}
{"Compound": "CC[C@@]1(O)C(=O)OCc2c1cc1n(c2=O)Cc2c-1nc1cc3c(cc1c2-c1ccccc1)OCO3", "Tested target": "pancreatic cancer cells (BxPC3)", "pIC50": "8.00 to 9.00"}
{"Compound": "CCC(C)c1c2c(nc3cc4c(cc13)OCO4)-c1cc3c(c(=O)n1C2)COC(=O)[C@]3(O)CC (stereo partly shown)", "Tested target": "pancreatic cancer cells (BxPC3)", "pIC50": "8.00 to 9.00"}
{"Compound": "CC[C@@]1(O)C(=O)OCc2c1cc1n(c2=O)Cc2c-1nc1cc3c(cc1c2CN(CCN)CCO)OCO3", "Tested target": "pancreatic cancer cells (BxPC3)", "pIC50": "6.00 to 7.00"}
{"Compound": "CC[C@@]1(O)C(=O)OCc2c1cc1n(c2=O)Cc2c-1nc1cc3c(cc1c2C(C)(C)C)OCO3", "Tested target": "pancreatic cancer cells (BxPC3)", "pIC50": "8.00 to 9.00"}
{"Compound": "CC[C@@]1(O)C(=O)OCc2c1cc1n(c2=O)Cc2c-1nc1cc3c(cc1c2CNC1CCCCC1)OCO3", "Tested target": "pancreatic cancer cells (BxPC3)", "pIC50": "8.00 to 9.00"}
{"Compound": "CCc1c2c(nc3ccc(O)cc13)-c1cc3c(c(=O)n1C2)COC(=O)[C@]3(O)CC", "Tested target": "pancreatic cancer cells (BxPC3)", "pIC50": "8.00 to 9.00"}
{"Compound": "CC[C@@]1(O)C(=O)OCc2c1cc1n(c2=O)Cc2c-1nc1cc(F)c(C)c3c1c2[C@@H](N)CC3", "Tested target": "pancreatic cancer cells (BxPC3)", "pIC50": "8.00 to 9.00"}
{"Compound": "CC[C@@]1(O)C(=O)OCc2c1cc1n(c2=O)Cc2c-1nc1cc3c(cc1c2CNCc1ccc(OC)cc1)OCO3", "Tested target": "pancreatic cancer cells (BxPC3)", "pIC50": "7.00 to 8.00"}
{"Compound": "CC[C@@]1(O)C(=O)OCc2c1cc1n(c2=O)Cc2c-1nc1cc3c(cc1c2CN(C)C(=O)CN)OCO3", "Tested target": "pancreatic cancer cells (BxPC3)", "pIC50": "6.00 to 7.00"}
